Give measured residual activity for each item. Keep answers brief.
- Subject Of Test: CAMKK2 (human) (UniProt Q96RR4)
- Sequence (Q96RR4 whole entry, looked up): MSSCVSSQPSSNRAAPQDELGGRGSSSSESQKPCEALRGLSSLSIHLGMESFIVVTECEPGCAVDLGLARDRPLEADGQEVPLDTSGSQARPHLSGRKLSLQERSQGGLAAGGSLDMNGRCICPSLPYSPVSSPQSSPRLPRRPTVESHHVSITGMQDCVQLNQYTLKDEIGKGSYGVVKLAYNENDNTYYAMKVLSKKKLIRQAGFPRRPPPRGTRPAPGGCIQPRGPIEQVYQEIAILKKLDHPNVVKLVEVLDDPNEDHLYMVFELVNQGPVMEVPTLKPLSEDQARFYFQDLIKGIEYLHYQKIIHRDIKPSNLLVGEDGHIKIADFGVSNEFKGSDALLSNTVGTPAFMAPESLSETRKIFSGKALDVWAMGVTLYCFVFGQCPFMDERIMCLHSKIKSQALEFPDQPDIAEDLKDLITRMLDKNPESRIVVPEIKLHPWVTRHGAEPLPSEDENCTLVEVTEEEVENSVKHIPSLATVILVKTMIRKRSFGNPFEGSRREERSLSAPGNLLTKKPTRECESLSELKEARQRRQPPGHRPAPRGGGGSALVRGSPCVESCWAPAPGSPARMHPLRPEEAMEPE
- Assay Overview: radiometric filter-binding kinase assay, Kinase HotSpot
- Experimental Parameters: compound 0.5 µM; ATP 10 µM
Numbers only, in %.

# Compound, Subject Of Test, residual activity, %
rows = [
    ("O=C1NC(=O)C(c2cn(CCCO)c3ncccc23)=C1c1cnccn1", "CAMKK2 (human) (UniProt Q96RR4)", 115),
    ("COc1ccc(OC)c2c(=S)c3ccccc3[nH]c12", "CAMKK2 (human) (UniProt Q96RR4)", 108),
    ("CN(C)C[C@H]1CCn2c(c(C3=C(c4cn(C)c5ccccc45)C(=O)NC3=O)c3ccccc32)C1", "CAMKK2 (human) (UniProt Q96RR4)", 108),
    ("O=C(O)/C=C/c1cc(Br)c(Br)c(Br)c1Br", "CAMKK2 (human) (UniProt Q96RR4)", 79.6),
    ("COc1ccc(CNC(=O)Nc2ncc([N+](=O)[O-])s2)cc1", "CAMKK2 (human) (UniProt Q96RR4)", 92.7),
]

Report residual activity for each item below.
1. O=C(Nc1cccc(Nc2cc(Nc3cccc(C(F)(F)F)c3)ncn2)c1)C1CC1
2. Nc1nccc(-c2c(-c3ccc(F)cc3)ncn2C2CCNCC2)n1
3. COc1cc2ncc(-c3ccccc3)nc2cc1OC
4. O=C1Cc2c([nH]c3ccc(Br)cc23)-c2ccccc2N1

[A]
[98.5, 110, 114, 77.8]

Report residual activity for each item below.
1. O=C1Nc2ccccc2/C1=C1/Nc2ccccc2/C1=N\OCCC(O)CO (stereo unspecified)
2. Cn1sc(=O)n(Cc2ccccc2)c1=O

[A]
[26, 95.2]

###

- Subject Of Test: EPHB3 (human) (UniProt P54753)
- Sequence (P54753 whole entry, looked up): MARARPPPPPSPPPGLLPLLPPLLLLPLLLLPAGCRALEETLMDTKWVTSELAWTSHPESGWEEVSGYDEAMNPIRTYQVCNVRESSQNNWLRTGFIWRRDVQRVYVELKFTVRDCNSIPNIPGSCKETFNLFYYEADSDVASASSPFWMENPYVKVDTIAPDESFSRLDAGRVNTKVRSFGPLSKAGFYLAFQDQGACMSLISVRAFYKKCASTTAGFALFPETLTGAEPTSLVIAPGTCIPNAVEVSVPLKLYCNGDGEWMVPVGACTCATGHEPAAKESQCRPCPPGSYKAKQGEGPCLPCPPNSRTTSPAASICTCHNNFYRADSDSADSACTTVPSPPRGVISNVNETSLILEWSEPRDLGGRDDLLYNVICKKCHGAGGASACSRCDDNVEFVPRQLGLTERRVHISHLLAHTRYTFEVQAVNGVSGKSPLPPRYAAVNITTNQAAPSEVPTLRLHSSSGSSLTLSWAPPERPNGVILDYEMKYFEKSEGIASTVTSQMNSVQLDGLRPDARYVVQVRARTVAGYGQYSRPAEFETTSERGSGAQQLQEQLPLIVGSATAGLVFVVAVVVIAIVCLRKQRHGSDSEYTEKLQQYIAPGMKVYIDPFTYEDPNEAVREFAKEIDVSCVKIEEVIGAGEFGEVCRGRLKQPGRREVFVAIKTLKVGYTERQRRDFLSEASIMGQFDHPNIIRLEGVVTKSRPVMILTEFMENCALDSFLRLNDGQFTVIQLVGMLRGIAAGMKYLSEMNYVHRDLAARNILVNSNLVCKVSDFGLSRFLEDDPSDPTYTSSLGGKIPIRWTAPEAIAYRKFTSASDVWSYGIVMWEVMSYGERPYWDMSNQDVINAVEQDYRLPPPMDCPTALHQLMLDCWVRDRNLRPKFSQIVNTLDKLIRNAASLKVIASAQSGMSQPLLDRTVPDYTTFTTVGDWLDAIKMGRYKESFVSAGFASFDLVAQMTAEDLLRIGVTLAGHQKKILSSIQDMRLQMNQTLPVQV
- Assay Overview: radiometric filter-binding kinase assay, Kinase HotSpot
- Experimental Parameters: compound 0.5 µM; ATP 10 µM
Quantity Kind: residual activity
Quote the value and follow it with the unit of measurement.

Worked examples, 2 molecules total:
# Item Smiles, residual activity
data = [
    ("Nc1nccc(-c2c(-c3ccc(F)cc3)ncn2C2CCNCC2)n1", "101%"),
    ("CC(C)c1nn(-c2c(Cl)cccc2Cl)c2nc(Cc3ccc(OCCO)cc3)nc(O)c12", "92.6%"),
]

Report residual activity for each item below.
1. O=C1NC(=O)C(c2c[nH]c3ccccc23)=C1c1c[nH]c2ccccc12
2. CC(C)[C@H](CO)Nc1nc(Nc2cc(N)cc(Cl)c2)c2ncn(C(C)C)c2n1
3. Cc1nc2cc3nc(-c4cccs4)cnc3cc2n1C

[A]
1. 94.3%
2. 95.3%
3. 101%

[Q] Query: residual activity; subject: `Nc1nnc2[nH]c3ccccc3nc1-2`
[A] 90.3%

###

Give measured residual activity for each item. Keep answers brief.
- Subject Of Test: MAPK9 (human) (UniProt P45984)
- Sequence (P45984 whole entry, looked up): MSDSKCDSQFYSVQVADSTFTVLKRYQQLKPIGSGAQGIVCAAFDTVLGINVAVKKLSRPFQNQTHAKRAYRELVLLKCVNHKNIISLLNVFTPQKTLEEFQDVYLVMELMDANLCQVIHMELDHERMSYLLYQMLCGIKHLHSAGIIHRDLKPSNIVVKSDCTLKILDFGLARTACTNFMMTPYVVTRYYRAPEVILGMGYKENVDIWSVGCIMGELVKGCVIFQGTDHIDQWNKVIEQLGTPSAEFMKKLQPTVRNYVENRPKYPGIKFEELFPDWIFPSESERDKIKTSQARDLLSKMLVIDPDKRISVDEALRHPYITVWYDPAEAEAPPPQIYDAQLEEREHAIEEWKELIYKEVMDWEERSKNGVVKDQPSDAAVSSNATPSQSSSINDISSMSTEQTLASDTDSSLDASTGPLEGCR
- Assay Overview: radiometric filter-binding kinase assay, Kinase HotSpot
- Experimental Parameters: compound 0.5 µM; ATP 10 µM
Quote the value and follow it with the unit of measurement.

Worked examples, 6 compounds total:
# Compound, residual activity
records = [
    ("COc1ccc(OC)c2c(=S)c3ccccc3[nH]c12", "102%"),
    ("O=C1NC(=O)/C(=C\\c2ccc3nccnc3c2)S1", "96%"),
    ("COc1ccc(CNC(=O)Nc2ncc([N+](=O)[O-])s2)cc1", "135%"),
    ("O=C1Cc2c([nH]c3ccc(Br)cc23)-c2ccccc2N1", "93.8%"),
    ("COc1cc2ncnc(N3CCN(C(=O)Nc4ccc(Oc5ccccc5)cc4)CC3)c2cc1OC", "88.4%"),
    ("O=C1Nc2ccccc2/C1=C1/Nc2ccccc2/C1=N\\OCCC(O)CO (stereo not given)", "44.3%"),
]

Report residual activity for each item below.
1. CC(C)[C@H](CO)Nc1nc(Nc2cc(N)cc(Cl)c2)c2ncn(C(C)C)c2n1
2. Cn1nc2c3c(cccc31)C(=O)c1ccccc1-2
3. CC(C)c1nn(-c2c(Cl)cccc2Cl)c2nc(Cc3ccc(OCCO)cc3)nc(O)c12
4. Nc1nnc2[nH]c3ccccc3nc1-2

[A]
1. 99.8%
2. 85.2%
3. 96.5%
4. 103%

Report residual activity for each item below.
1. CCN(CC)CCCCN1c2ccccc2Oc2ccc(Cl)cc21
2. CCn1cnc2c(Nc3cccc(Cl)c3)nc(N[C@@H]3CCCC[C@@H]3N)nc21
3. COc1cc2ncc(-c3ccccc3)nc2cc1OC
4. CN([C@@H](Cc1ccc(OS(=O)(=O)c2cccc3cnccc23)cc1)C(=O)N1CCN(c2ccccc2)CC1)S(=O)(=O)c1cccc2cnccc12
5. O=C1NC(=O)C(c2cn(CCCO)c3ncccc23)=C1c1cnccn1
6. O=C(O)/C=C/c1cc(Br)c(Br)c(Br)c1Br
7. Oc1ccc(Nc2nc(-c3ccc(Cl)cc3)cs2)cc1
8. Cn1cnc2cc3c(Nc4cccc(Br)c4)ncnc3cc21

[A]
["105%", "102%", "93.1%", "85.6%", "100%", "96.4%", "98.3%", "92.3%"]

Report residual activity for each item below.
1. O=C(Nc1cccc(Nc2cc(Nc3cccc(C(F)(F)F)c3)ncn2)c1)C1CC1
2. CC(=O)O/N=C1\C(=C2\C(=O)Nc3cc(Br)ccc32)Nc2ccccc21
3. O=C(CCCc1ccc(-c2ccccc2F)cc1)Nc1ccc(O)cc1
4. CN(C)C[C@H]1CCn2c(c(C3=C(c4cn(C)c5ccccc45)C(=O)NC3=O)c3ccccc32)C1
5. O=C1Nc2ccccc2/C1=C1\Nc2ccccc2\C1=N/O
6. Cc1nc2cc3nc(-c4cccs4)cnc3cc2n1C

[A]
1. 98.2%
2. 90.5%
3. 106%
4. 105%
5. 65.6%
6. 74.7%

[Q] Query: residual activity; subject: `O=C1NC(=O)C(c2c[nH]c3ccccc23)=C1c1c[nH]c2ccccc12`
[A] 95.4%

###

Give measured residual activity for each item. Keep answers brief.
- Subject Of Test: CSNK2A1 (human) (UniProt P68400)
- Sequence (P68400 whole entry, looked up): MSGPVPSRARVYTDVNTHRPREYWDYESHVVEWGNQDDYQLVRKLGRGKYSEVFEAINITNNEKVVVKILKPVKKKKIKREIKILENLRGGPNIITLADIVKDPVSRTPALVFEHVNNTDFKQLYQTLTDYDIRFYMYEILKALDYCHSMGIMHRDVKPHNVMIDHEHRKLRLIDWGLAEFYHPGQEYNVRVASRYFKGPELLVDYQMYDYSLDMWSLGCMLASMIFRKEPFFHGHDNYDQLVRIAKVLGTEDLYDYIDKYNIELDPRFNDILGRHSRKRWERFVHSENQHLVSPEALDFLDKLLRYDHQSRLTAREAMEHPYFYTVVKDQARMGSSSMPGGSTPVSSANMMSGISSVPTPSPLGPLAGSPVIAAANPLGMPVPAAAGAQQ
- Assay Overview: radiometric filter-binding kinase assay, Kinase HotSpot
- Experimental Parameters: compound 0.5 µM; ATP 10 µM
Answers are plain numbers, in %.

# Item Smiles, Reported Value
measured = [
    ("Cn1nc2c3c(cccc31)C(=O)c1ccccc1-2", 90.2),
    ("O=C(Nc1cccc(Nc2cc(Nc3cccc(C(F)(F)F)c3)ncn2)c1)C1CC1", 92.6),
    ("O=C(CCCc1ccc(-c2ccccc2F)cc1)Nc1ccc(O)cc1", 89.4),
    ("Nc1nnc2[nH]c3ccccc3nc1-2", 87.6),
    ("O=C(O)/C=C/c1cc(Br)c(Br)c(Br)c1Br", 13.1),
    ("CC(=O)O/N=C1\\C(=C2\\C(=O)Nc3cc(Br)ccc32)Nc2ccccc21", 81.8),
    ("O=C1NC(=O)/C(=C\\c2ccc3nccnc3c2)S1", 3.08),
    ("Nc1nccc(-c2c(-c3ccc(F)cc3)ncn2C2CCNCC2)n1", 94.7),
]

Turning now to a further molecule:
[Q] Query: residual activity; subject: `Oc1ccc(Nc2nc(-c3ccc(Cl)cc3)cs2)cc1`
[A] 101

###

- Subject Of Test: EPHB1 (human) (UniProt P54762)
- Sequence (P54762 whole entry, looked up): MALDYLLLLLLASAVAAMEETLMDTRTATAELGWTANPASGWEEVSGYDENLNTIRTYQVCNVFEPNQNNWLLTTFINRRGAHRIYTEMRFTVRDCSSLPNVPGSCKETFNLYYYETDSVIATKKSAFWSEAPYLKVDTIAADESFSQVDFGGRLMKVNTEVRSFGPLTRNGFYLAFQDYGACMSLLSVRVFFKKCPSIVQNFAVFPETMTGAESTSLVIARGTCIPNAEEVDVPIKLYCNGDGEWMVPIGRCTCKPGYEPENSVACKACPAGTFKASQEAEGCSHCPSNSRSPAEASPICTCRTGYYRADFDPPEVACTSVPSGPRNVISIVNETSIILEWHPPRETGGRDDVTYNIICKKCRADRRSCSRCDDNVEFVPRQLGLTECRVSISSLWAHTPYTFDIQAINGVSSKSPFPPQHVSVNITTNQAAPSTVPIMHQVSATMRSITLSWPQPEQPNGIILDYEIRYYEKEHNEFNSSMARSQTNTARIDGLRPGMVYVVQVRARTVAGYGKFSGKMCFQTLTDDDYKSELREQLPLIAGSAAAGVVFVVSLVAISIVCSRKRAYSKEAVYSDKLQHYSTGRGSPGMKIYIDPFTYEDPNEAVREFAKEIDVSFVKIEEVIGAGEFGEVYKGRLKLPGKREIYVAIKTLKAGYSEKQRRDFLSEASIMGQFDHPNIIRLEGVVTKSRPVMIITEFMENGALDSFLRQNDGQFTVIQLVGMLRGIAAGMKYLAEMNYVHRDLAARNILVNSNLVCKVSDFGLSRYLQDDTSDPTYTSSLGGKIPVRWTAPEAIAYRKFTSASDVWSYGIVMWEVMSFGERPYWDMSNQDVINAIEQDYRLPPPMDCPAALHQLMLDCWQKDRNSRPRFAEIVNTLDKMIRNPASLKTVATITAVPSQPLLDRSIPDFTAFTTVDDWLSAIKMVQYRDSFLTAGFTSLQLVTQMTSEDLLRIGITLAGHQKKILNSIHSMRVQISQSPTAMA
- Assay Overview: radiometric filter-binding kinase assay, Kinase HotSpot
- Experimental Parameters: compound 0.5 µM; ATP 10 µM
Give measured residual activity for each item. Keep answers brief.
Answers are plain numbers, in %.

# Molecule, Subject Of Test, Reported Value
records = [
    ("O=C1Nc2ccccc2/C1=C1\\Nc2ccccc2\\C1=N/O", "EPHB1 (human) (UniProt P54762)", 86.2),
    ("CC(C)[C@H](CO)Nc1nc(Nc2cc(N)cc(Cl)c2)c2ncn(C(C)C)c2n1", "EPHB1 (human) (UniProt P54762)", 59.2),
    ("CN([C@@H](Cc1ccc(OS(=O)(=O)c2cccc3cnccc23)cc1)C(=O)N1CCN(c2ccccc2)CC1)S(=O)(=O)c1cccc2cnccc12", "EPHB1 (human) (UniProt P54762)", 94.2),
    ("O=C1Nc2ccccc2/C1=C1/Nc2ccccc2/C1=N\\OCCC(O)CO (stereo not given)", "EPHB1 (human) (UniProt P54762)", 65.9),
    ("CN(C)C[C@H]1CCn2c(c(C3=C(c4cn(C)c5ccccc45)C(=O)NC3=O)c3ccccc32)C1", "EPHB1 (human) (UniProt P54762)", 106),
]

Report residual activity for each item below.
1. O=C1NC(=O)C(c2c[nH]c3ccccc23)=C1c1c[nH]c2ccccc12
2. O=C(O)/C=C/c1cc(Br)c(Br)c(Br)c1Br
3. CCN(CC)CCCCN1c2ccccc2Oc2ccc(Cl)cc21
4. Cn1cnc2cc3c(Nc4cccc(Br)c4)ncnc3cc21
5. COc1cc2ncnc(N3CCN(C(=O)Nc4ccc(Oc5ccccc5)cc4)CC3)c2cc1OC
6. Nc1nnc2[nH]c3ccccc3nc1-2
7. Cn1nc2c3c(cccc31)C(=O)c1ccccc1-2
8. CC(C)c1nn(-c2c(Cl)cccc2Cl)c2nc(Cc3ccc(OCCO)cc3)nc(O)c12

[A]
1. 83.1
2. 95.2
3. 110
4. 72.2
5. 94.3
6. 92.3
7. 94.6
8. 91.3

Report residual activity for each item below.
1. CCn1cnc2c(Nc3cccc(Cl)c3)nc(N[C@@H]3CCCC[C@@H]3N)nc21
2. Cn1sc(=O)n(Cc2ccccc2)c1=O
3. Oc1ccc(Nc2nc(-c3ccc(Cl)cc3)cs2)cc1
4. CC(=O)O/N=C1\C(=C2\C(=O)Nc3cc(Br)ccc32)Nc2ccccc21

[A]
1. 56.6
2. 100
3. 105
4. 99.9
